measured-on: T1, ST2 on the effector cells (KU812, KU812/NF-κB-1#, HUVEC, HMC-1) (human, UniProt Q01638 19-556)
T1 sequence (looked up): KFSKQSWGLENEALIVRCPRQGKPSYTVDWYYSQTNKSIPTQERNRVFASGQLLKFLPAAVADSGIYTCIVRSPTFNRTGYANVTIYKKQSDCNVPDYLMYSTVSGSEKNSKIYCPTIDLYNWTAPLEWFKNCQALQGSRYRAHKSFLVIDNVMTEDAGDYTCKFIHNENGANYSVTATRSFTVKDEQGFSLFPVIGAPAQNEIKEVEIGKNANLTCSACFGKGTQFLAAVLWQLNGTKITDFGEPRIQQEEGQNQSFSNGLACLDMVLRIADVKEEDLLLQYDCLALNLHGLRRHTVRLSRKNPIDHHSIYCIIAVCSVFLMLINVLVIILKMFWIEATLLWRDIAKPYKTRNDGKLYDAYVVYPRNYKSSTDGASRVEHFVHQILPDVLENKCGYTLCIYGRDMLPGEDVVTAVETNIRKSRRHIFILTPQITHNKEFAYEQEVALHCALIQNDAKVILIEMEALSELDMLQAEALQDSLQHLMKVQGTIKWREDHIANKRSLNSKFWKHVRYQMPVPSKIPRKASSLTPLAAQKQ
assay-details: cell-based or functional assay
parameter-measured: Maximum inhibition rate, KU812-NF-κB reporter gene (%)
Response body: numeric value in %, unit text excluded.

Query :: Fill in reported Maximum inhibition rate, KU812-NF-κB reporter gene for this entry: 5888-153-H1L2 (antibody, human IgG4 S228P, kappa, V domains shown) VH: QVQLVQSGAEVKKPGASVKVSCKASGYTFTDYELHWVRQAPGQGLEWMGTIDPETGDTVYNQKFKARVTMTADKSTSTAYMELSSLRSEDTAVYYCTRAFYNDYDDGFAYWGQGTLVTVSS VL: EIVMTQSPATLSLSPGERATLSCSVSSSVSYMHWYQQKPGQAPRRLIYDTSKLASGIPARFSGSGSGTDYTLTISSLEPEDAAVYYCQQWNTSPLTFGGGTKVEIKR
Result :: 85

Query :: Fill in reported Maximum inhibition rate, KU812-NF-κB reporter gene for this entry: Control antibody CNTO7160 (antibody, human IgG4 S228P, kappa, V domains shown, Known anti-ST2 control antibody) VH: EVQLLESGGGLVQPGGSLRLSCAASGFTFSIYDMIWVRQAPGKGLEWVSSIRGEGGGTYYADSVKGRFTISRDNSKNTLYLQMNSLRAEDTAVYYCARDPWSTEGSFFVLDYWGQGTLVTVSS VL: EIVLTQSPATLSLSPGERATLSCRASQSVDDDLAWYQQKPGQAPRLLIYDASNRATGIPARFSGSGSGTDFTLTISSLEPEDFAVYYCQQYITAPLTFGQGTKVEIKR
Result :: 88.2

Query :: Fill in reported Maximum inhibition rate, KU812-NF-κB reporter gene for this entry: 5888-153-H3L2 (antibody, human IgG4 S228P, kappa, V domains shown, Humanized antibody) VH: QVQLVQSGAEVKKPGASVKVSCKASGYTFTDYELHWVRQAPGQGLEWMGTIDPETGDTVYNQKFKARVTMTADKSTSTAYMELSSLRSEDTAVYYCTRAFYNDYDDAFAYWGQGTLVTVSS VL: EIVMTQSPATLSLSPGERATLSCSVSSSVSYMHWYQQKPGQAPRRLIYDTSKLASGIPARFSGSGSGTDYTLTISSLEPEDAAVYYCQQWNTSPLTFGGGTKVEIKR
Result :: 88.1
